- TARGET_OR_TEST_SYSTEM: Q53-GFP
- TEST_SUMMARY: OI-RD affinity reaction parameters with Q53-GFP
PARAMETER: pKd
Bear in mind: pKd is minus log10 of a mol/L concentration; give just that figure.

Fill in: pKd of `O=C1Nc2ccc(I)cc2/C1=C/c1cc(Br)c(O)c(Br)c1` is ___ 7.60

---

- TARGET_OR_TEST_SYSTEM: Q72-GFP
- TEST_SUMMARY: MST affinity with Q72-GFP
PARAMETER: Kd (µM)
Write the number in µM without appending the unit.

Fill in: Kd of O=C1Nc2ccc(I)cc2/C1=C/c1cc(Br)c(O)c(Br)c1 [compound 1, GW5074] is ___ 3

# credit: patent US20220170930A1
